Assay: mn = molality of the nth substance listed, in mol/kg
Details: 298.15 K; 101.3 kPa; Liquid; m2 = 0
observation type: mass density (kg/m3)
Quick reminder: number only, in kg/m3, skip the unit.

A selection of reference data follows.
In: Please report the recorded mass density for CN(C)C=O [dimethylformamide] + [O-][Cl+3]([O-])([O-])[O-].[O-][Cl+3]([O-])([O-])[O-].[Zn+2] .
Out: 943.884

In: Please report the recorded mass density for CN(C)C=O [dimethylformamide] + [Ni+2].[O-][Cl+3]([O-])([O-])[O-].[O-][Cl+3]([O-])([O-])[O-] .
Out: 943.884

In: Please report the recorded mass density for CN(C)C=O [dimethylformamide] + [Cu+2].[O-][Cl+3]([O-])([O-])[O-].[O-][Cl+3]([O-])([O-])[O-] .
Out: 943.797

In: Please report the recorded mass density for CN(C)C=O [dimethylformamide] + [Mn+2].[O-][Cl+3]([O-])([O-])[O-].[O-][Cl+3]([O-])([O-])[O-] .
Out: 943.797

Others:
In: Please report the recorded mass density for CN(C)C=O [dimethylformamide] + [Co+2].[O-][Cl+3]([O-])([O-])[O-].[O-][Cl+3]([O-])([O-])[O-] .
Out: 943.884

###

Assay: mn = molality of the nth substance listed, in mol/kg
Conditions: 333.15 K; 101.3 kPa; Liquid; m2 = 0
observation type: mass density (kg/m3)
Quick reminder: number only, in kg/m3, skip the unit.

In: Please report the recorded mass density for CN(C)C=O [dimethylformamide] + [Ni+2].[O-][Cl+3]([O-])([O-])[O-].[O-][Cl+3]([O-])([O-])[O-] .
Out: 910.2

In: Please report the recorded mass density for CN(C)C=O [dimethylformamide] + [Cu+2].[O-][Cl+3]([O-])([O-])[O-].[O-][Cl+3]([O-])([O-])[O-] .
Out: 910.12

In: Please report the recorded mass density for CN(C)C=O [dimethylformamide] + [O-][Cl+3]([O-])([O-])[O-].[O-][Cl+3]([O-])([O-])[O-].[Zn+2] .
Out: 910.2

Others:
In: Please report the recorded mass density for CN(C)C=O [dimethylformamide] + [Co+2].[O-][Cl+3]([O-])([O-])[O-].[O-][Cl+3]([O-])([O-])[O-] .
Out: 910.2

In: Please report the recorded mass density for CN(C)C=O [dimethylformamide] + [Mn+2].[O-][Cl+3]([O-])([O-])[O-].[O-][Cl+3]([O-])([O-])[O-] .
Out: 910.12
